- assay.explanation: folding stability dG unfold from chymotrypsin proteolysis; higher = more stable
endpoint.name: folding stability dG unfold
Please make sure the unit comes right after the number.

sequence.record: SAGGMEKAIKEIKEAAKKGEEAVIVLPKNVDPSELISAIEKETGAKVEPLEVKPLPNGELVIKIKVKSAGGS [r16_318_TrMRF]
folding stability dG unfold: 2.23 kcal/mol

Quick request: folding stability dG unfold for each listed item, please.
1. SAGMTHVLPVPELSPEEVRALAEALPEGEELVLLVPGPELLAELRAAGFPVDPARFRLATPEERAELLASAG [r5_354_JUSTAS]
2. SAGGSAGGSAMKLEVFPVPDGQIAVFEDADGNIRVIGVPEPNLSISDIAKIALDLGADSVELSAGGSAGGSA [r18_83_TrMRF]
3. SAGGNKGKTIQINFMIDPEDPEMMIEKISKWLQAKGFKIESIEPRPVGNRWMYSATFRVPNGREITIWSAGG [r13_421_TrROS]

Result:
1: 0.857 kcal/mol; 2: -0.45 kcal/mol; 3: 1.61 kcal/mol
